Entry source: PubChem BioAssay AID743279

Method notes: qHTS for Inhibitors of Inflammasome Signaling: IL-1-beta AlphaLISA Primary Screen; further: on the % scale 0 is the no-effect control and ±100 the full control effect
Particulars: THP-1 LPS/ATP IL-1B secretion, 16 h; at 57.5 µM
Hit rate of the full screen: of about 360,000 compounds, about 17,000 (4.7%) were called active. Inconclusive results (about 5%) are left out. No stated cut-off is given here; in the data, active means activity change below about -50%; inconclusive means mostly about -30% to -49%; inactive means weaker than that. The sample holds actives, similar compounds and a random draw of the others, so the mix is not that of the screen.
Write down the outcome that applies. Available outcomes: active, inactive

State the result this test recorded for O=C1NN(c2ccccc2)C(=O)/C1=C/c1ccc(-c2cccc(C(=O)O)c2)o1 . inactive

More entries:
What classification did Cc1cccc(NC(=O)CSc2nc3[nH]ncc3c(=O)[nH]2)c1 end up with in this test? inactive

// param item: Cc1cccc(CS(=O)(=O)c2ncc(Cl)c(C(=O)Nc3ccc(F)cc3)n2)c1 ; yields the recorded call active

====

Method notes: qHTS for Inhibitors of Inflammasome Signaling: IL-1-beta AlphaLISA Primary Screen
Particulars: THP-1 LPS/ATP IL-1B secretion, 16 h; at 57.5 µM, stronger effect = lower value
Source text: Inflammasomes are a set of intracellular multi-protein complexes that enable autocatalytic activation of inflammatory caspases and drive the innate immune response to counter harmful agents. […] A qHTS assay, based on AlphaLISA technology, was developed to screen the Molecular Libraries Small Molecule Repository (MLSMR) to look for novel inflammasome inhibitors. The assay detects IL-1B using AlphaLISA anti-IL-1B acceptor and donor beads. […]
Screen size: about 360,000 compounds; about 17,000 (4.7%) were called active. Another 5% or so got no clear call; they are omitted. The full list was thinned out, with actives kept by preference.
The reader will find reported activity change values listed item by item below.
Dear colleague, please return just the value in %, with no unit written.

Study these solved cases before continuing.
Which activity change is reported for this molecule? NC(=O)c1ccc(NC(=O)COC(=O)c2c3c(nc4ccccc24)/C(=C\c2ccc4c(c2)OCO4)CCC3)cc1 -3.47

Would you kindly share the measured activity change for CCCCc1c(-c2ccc(Cl)cc2)ncn1CCc1ccccc1OC ? -109

Next:
For COc1ccc(CCNC(=O)C(Sc2ccccn2)c2ccccc2)cc1OC (stereo not drawn) , what is its reported activity change? -6.65

====

Examples of molecules with documented activity change follow.
Method notes: qHTS for Inhibitors of Inflammasome Signaling: IL-1-beta AlphaLISA Primary Screen
Particulars: THP-1 LPS/ATP IL-1B secretion, 16 h; at 57.5 µM, stronger effect = lower value
Out of some 360,000 compounds screened, about 17,000 (4.7%) were called active. Another 5% or so got no clear call; they are omitted. Shown is part of a subset that was picked to be rich in actives.
Number only, in %; omit the unit.

Worked cases, answers included:
Given the molecule CC(C)C(=O)Nc1ccc(C(=O)NNC(=O)c2cccs2)cc1 , what is its reported activity change? 7.36

# input molecule: CCNC(=O)C1(C)CCN(C(=O)c2ccccc2)C1 (centres undefined) ; wanted: its activity change 26.9

Which measured activity change value corresponds to COc1ccccc1OCCC(=O)OCC(=O)NCc1ccccc1 ? 18

I have this molecule here, Cc1ccc(N2C(=O)C(CC(=O)Nc3cccc(F)c3)N(CCc3ccncc3)C2=O)cc1 (centres undefined) , and I need its recorded activity change. -0.0392

// activity change lookup, key: Cc1ccc(-c2nn(-c3cccc(F)c3)cc2CNCCc2ccncc2)o1 -77.5

---
What activity change value was documented for this molecule, Cn1ncc([N+](=O)[O-])c1C(=O)Nc1cc(Cl)ccc1Cl ? -5.95

For the molecule shown here, COc1ccc(CNC(=O)C2(CC3CC(c4ccccc4)=NO3)CCN(C(=O)c3cccc(O)c3)CC2)cc1 (centres undefined) , give the reported activity change. -61.2

# input molecule: Cc1ccc(C(CNC(=O)Nc2cccc(C)c2)N2CCN(C)CC2)cc1 (centres undefined) ; wanted: its activity change -20.1

May I ask what activity change has been recorded for CC1(C(=O)Nc2ccc3c(c2)OCCO3)CN(S(C)(=O)=O)CC(=O)N1Cc1cccc(F)c1 (centres undefined) ? -9.42
